# Test Description: Serum pregabalin concentration after application to the back of an adult, LC/MS (Example 12)
# Format: in vivo, human
# Details: male, human, serum, topical; 150 mg in aqueous solution applied to the back; 30 minutes after the administration
Measure Name: concentration at 30 min (ng/mL)
# number only, unit ng/mL dropped from output

Exam item: # lookup: concentration at 30 min of CC(C)C[C@H](CN)CC(=O)O [Pregabalin]
Marked response: 9
